- test_system: Melanin-concentrating hormone receptor 1 (Homo sapiens, UniProt Q99705)
- Sequence (Q99705 whole entry): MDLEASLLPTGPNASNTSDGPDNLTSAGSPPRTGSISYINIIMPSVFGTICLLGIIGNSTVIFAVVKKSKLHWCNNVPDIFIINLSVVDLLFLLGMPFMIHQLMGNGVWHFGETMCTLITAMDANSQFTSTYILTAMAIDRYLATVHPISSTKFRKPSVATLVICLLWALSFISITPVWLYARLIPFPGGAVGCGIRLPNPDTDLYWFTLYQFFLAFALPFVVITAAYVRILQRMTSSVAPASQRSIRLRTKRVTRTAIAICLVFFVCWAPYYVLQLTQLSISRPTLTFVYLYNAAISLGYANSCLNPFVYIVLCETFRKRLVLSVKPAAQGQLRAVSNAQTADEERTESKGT
- assay_notes: Antagonist activity at MCH1 receptor
readout_name: Ki (nM)

Recorded Ki, per entry:
Entry under test: CCS(=O)(=O)N1CCC(CN(C(=O)Nc2ccc(F)c(F)c2)C2CC[C@]3(c4cccc(C#N)c4)CC3C2)CC1 (some centres undefined) . Its Ki was 21

# Ki (molecule: CC(C)N(CCN(C(=O)Nc1cccc(Cl)c1)C1CC[C@]2(c3cccc(C#N)c3)CC2C1)C(C)C (some centres undefined) ) is 6

// sample C[N+]1(CCN(C(=O)Nc2ccc(F)c(Cl)c2)C2CC[C@]3(c4cccc(C#N)c4)CC3C2)CCCC1 (some centres undefined) , its Ki was 16

Lab note: N#Cc1cccc([C@]23CCC(N(CCN4CC[C@@H](O)C4)C(=O)Nc4ccc(F)c(F)c4)CC2C3)c1 (some centres undefined) gave Ki of 20

Note to self: Ki recorded for CC(C)N(CCF)CCN(C(=O)Nc1ccc(F)c(Cl)c1)C1CC[C@]2(c3cccc(C#N)c3)CC2C1 (some centres undefined) was 12

I: N#Cc1cccc([C@]23CCC(N(CCN4CCCCCC4)C(=O)Nc4ccc(F)c(Cl)c4)CC2C3)c1 (some centres undefined)
II: CC(C)N(CCN(C(=O)Nc1cc(F)cc(F)c1)C1CC[C@]2(c3cccc(C#N)c3)CC2C1)C(C)C (some centres undefined)
III: CC(C)N(CCN(C(=O)Nc1ccc(F)c(F)c1)C1CC[C@]2(c3cccc(Br)c3)CC2C1)C(C)C (some centres undefined)
IV: COc1cccc(NC(=O)N(CCN2CC[C@@H](O)C2)C2CC[C@]3(c4cccc(C#N)c4)CC3C2)c1 (some centres undefined)
Request: Arrange the 4 molecules from largest to smallest Ki. Labels, requested order.
Response: IV, I, III, II
(IV: 373 nM, I: 15 nM, III: 7.76 nM, II: 4.5 nM)
